- Tested on: VEEV
- Assay method text: microbe, parasite or virus in culture
- Format: cell-based
- Measurement context: Venezuelan equine encephalitis virus, HeLa
Measurement type: EC50

// sample O=c1nc(NO)ccn1[C@@H]1O[C@H](CO)C(O)C1O (stereo partly shown) [drawing 78] , its EC50 was 1.24 µM

Entry CCCCCCCNC(=O)ONc1ccn([C@@H]2O[C@H](CO)C(O)C2O)c(=O)n1 (stereo partly shown) [drawing 82] ; EC50 = 6 µM

Sure, the documented EC50 for CC(C)OC(=O)[C@H](C)NP(=O)(OC[C@H]1O[C@@H](n2ccc(NO)nc2=O)C(O)C1O)Oc1ccccc1 (stereo partly shown) [drawing 80] is 16.2 µM

Consider CCCCCCCOC(=O)ONc1ccn([C@@H]2O[C@H](CO)C(O)C2O)c(=O)n1 (stereo partly shown) [drawing 79] . Its measured EC50 is 0.57 µM
